Data origin, for the record: paper PMC8328229

- ASSAY_TARGET: T1, MBP-tagged Methanocaldococcus jannaschii YcaO (Methanocaldococcus jannaschii, UniProt Q58494 1-385)
- T1 sequence (looked up): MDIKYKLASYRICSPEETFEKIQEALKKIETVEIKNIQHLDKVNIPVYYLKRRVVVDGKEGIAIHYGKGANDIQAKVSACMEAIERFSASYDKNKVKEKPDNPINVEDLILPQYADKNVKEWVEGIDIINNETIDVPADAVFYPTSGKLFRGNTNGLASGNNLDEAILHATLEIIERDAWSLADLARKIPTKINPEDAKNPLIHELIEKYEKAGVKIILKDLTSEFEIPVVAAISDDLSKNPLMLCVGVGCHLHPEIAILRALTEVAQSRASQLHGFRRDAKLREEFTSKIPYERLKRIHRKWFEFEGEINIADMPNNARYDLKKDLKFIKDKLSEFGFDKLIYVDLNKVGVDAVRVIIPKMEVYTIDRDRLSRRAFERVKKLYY
- ASSAY_OVERVIEW: fluorescence polarisation
Primed or numbered codes have the meaning given here. Where no end group is shown, it is not given here. FITC′ = fluorescein
PROPERTY: Kd (µM)
The response must be a number in µM with no trailing unit.

Task item: Which Kd value is on record for {FITC′}-GGRLGFYGYDLQD [FITC-labeled M. jannaschii McrA 13-mer peptide (GG-RLGFYGYDLQD)] ?
Reply: 1.1
